Parameter growth inhibition: see the listing below.
Assay: NCI Yeast Anticancer Drug Screen. Data for the bub3 strain (AID 167)
Conditions: S. cerevisiae bub3 mutant strain, at 50.0 µM, stronger effect = higher value
Description: Growth inhibition of yeast strains with defined genetic alterations is measured as a screen for potential anti-cancer activity. Selected strains with alterations in DNA damage repair or cell cycle control were exposed to compounds and growth inhibition was measured relative to vehicle treated controls. The strain used in this assay is bub3
The panel holds about 79,000 compounds, 15% with a hit somewhere; the sample as a whole holds those more often.
quantity name: growth inhibition (%)

{"columns": ["molecule", "numeric readout"],
 "data": [
  ["N#Cc1cccc(N(C(=O)c2ccccc2)c2ccccc2)n1", 41],
  ["CCN(CC)c1ccc(NCC(O)c2cc(Cl)ccc2OC)cc1 (configuration not stated)", -6.3],
  ["OC1OC2COC(c3ccccc3)OC2C(O)C1O (configuration not stated)", -3.3],
  ["CCC(C(=O)O)C(C)(C)C (configuration not stated)", -0.3],
  ["O=C(OCCc1ccccc1)C(O)c1ccccc1 (configuration not stated)", 6.6],
  ["CCOC(=O)NC(=O)c1cn(C2CCCCC2)c(=O)[nH]c1=O", -0.7],
  ["CNc1ccccc1C(=O)N/N=C/c1cccc([N+](=O)[O-])c1", 32.5]
]}

Cited source for all entries: PubChem BioAssay (NCI)
